tested on: Vero; assay: Cytotoxicity against african green monkey Vero cells after 48 hrs by MTT assay; assay type: cell-based; details: Chlorocebus sabaeus
pIC50: −log10 of the molar value.
Decide by pIC50: equal to or exceeding 5 means 1, less means -1.

>>> cat("C[n+]1c2ccccc2c(NC2CCNCC2)c2[nH]c3ccccc3c21.[Cl-]")
-1
>>> cat("C[n+]1c2ccccc2c(NCCCCN)c2[nH]c3ccccc3c21.[Cl-]")
-1
>>> cat("C[n+]1c2ccccc2cc2[n-]c3ccccc3c21.Cl [CRYPTOLEPINE HYDROCHLORIDE]")
1
>>> cat("C[n+]1c2ccccc2c(NCCCN2CCCCC2)c2[nH]c3ccccc3c21.[Cl-]")
-1

Given "C[n+]1c2ccccc2c(NCCN)c2[nH]c3ccccc3c21.[Cl-]" , state whether its pIC50 is at least 5.
-1

---

test system: Plasmodium falciparum; assay: Antiplasmodial activity against chloroquine-sensitive, mefloquine-resistant ring stage Plasmodium falciparum D6 infected in human red blood cells after 48 hrs; type: functional, organism-based; settings: D6, 48 h
Measured Parameter: pIC50
The read-out pIC50 is expressed as -log10 of concentration in moles per litre.

Consider the reported pIC50 for these compounds:
>>> endpoint_result("CCN(CC)CCCCNc1c2ccccc2[n+](C)c2c1[nH]c1ccccc12.[Cl-]")
7.15
>>> endpoint_result("C[n+]1c2cc(Cl)ccc2c(NC2CCNCC2)c2[nH]c3ccccc3c21.[Cl-]")
7.15
>>> endpoint_result("CN(C)CCNc1c2ccccc2[n+](C)c2c1[nH]c1ccccc12.[Cl-]")
7.18
>>> endpoint_result("C[n+]1c2ccccc2c(NCCCN)c2[nH]c3ccccc3c21.[Cl-]")
7.15
>>> endpoint_result("CCN(CC)CCCC(C)Nc1c2ccccc2[n+](C)c2c1[nH]c1ccccc12.[Cl-] (stereo not given)")
6.79

Moving on to another compound below.
Which pIC50 value belongs to "C[n+]1c2ccccc2c(Nc2ccc(N3CCCCC3)cc2)c2[nH]c3ccccc3c21.[Cl-]" ?
6.54

---

system: Plasmodium falciparum; assay: Antiplasmodial activity against chloroquine-sensitive, mefloquine-resistant ring stage Plasmodium falciparum D6 infected in human red blood cells after 48 hrs; type: functional, organism-based; conditions: D6, 48 h
The entries below are paired with their reported pIC50.
The read-out pIC50 is expressed as -log10 of concentration in moles per litre.

Consider the reported pIC50 for these compounds:
>>> endpoint_result("C[n+]1c2ccccc2c(NC2CCN(Cc3ccccc3O)CC2)c2[nH]c3ccccc3c21.[Cl-]")
6.73
>>> endpoint_result("CCN(CC)CCCNc1c2ccc(Cl)cc2[n+](C)c2c1[nH]c1ccccc12.[Cl-]")
7.15
>>> endpoint_result("C[n+]1c2ccccc2c(NCCCCN)c2[nH]c3ccccc3c21.[Cl-]")
6.61
>>> endpoint_result("CCN(CC)c1c2ccccc2[n+](C)c2c1[nH]c1ccccc12.[Cl-]")
5.89

Moving on to another compound below.
Which pIC50 value belongs to C[n+]1c2ccccc2cc2[n-]c3ccccc3c21.Cl [CRYPTOLEPINE HYDROCHLORIDE] ?
6.65

---

test system: Nucleic Acid; assay: Binding affinity to s(GATCCTAGGATC)2-DNA by fluorescence spectroscopy; type: nucleic-acid assay
Measured Parameter: Ka (×10⁶ /M)
Answer in ×10⁶ /M, number only, no unit symbol.

Consider the reported Ka for these compounds:
>>> endpoint_result("C[n+]1c2ccccc2c(NC2CCN(Cc3ccccc3O)CC2)c2[nH]c3ccccc3c21.[Cl-]")
0.6
>>> endpoint_result("CN(C)CC(C)(C)CNc1c2ccccc2[n+](C)c2c1[nH]c1ccccc12.[Cl-]")
2.6
>>> endpoint_result("CC(C)CN1CCC(Nc2c3ccccc3[n+](C)c3c2[nH]c2ccccc23)CC1.[Cl-]")
0.74
>>> endpoint_result("C[n+]1c2ccccc2c(Nc2cccnc2)c2[nH]c3ccccc3c21.[Cl-]")
1

Moving on to another compound below.
Which Ka value belongs to "C[n+]1c2ccccc2c(NC2CCN(Cc3ccccc3)CC2)c2[nH]c3ccccc3c21.[Cl-]" ?
0.68

Measured values drawn from ChEMBL document CHEMBL1671820 for this set.
